Numbers sourced from paper PMC4872389.

Measurement Notes: Plasma and tissue D, DA, DOH after sub-chronic dietary AGN exposure
Format: in vivo, male C57BL/6J mice
Condition Details: male, C57BL/6J, mouse, plasma, oral, 0.5 % AGN in diet
Property Label: concentration at 6 weeks (nM)
Answer in nM, number only, no unit symbol.

Requested field: concentration at 6 weeks. Item: `CC1(C)Oc2cc3oc(=O)ccc3cc2C[C@@H]1O`
990

* * *

The entries below are paired with their reported Tmax.
Measurement Notes: Plasma and tissue D, DA, DOH after a single gavage dose of D/DA
Type: in vivo, male C57BL/6 mice
Condition Details: male, C57BL/6, mouse, po, 3 mg
Answer in h, number only, no unit symbol.

Recorded Tmax, per entry:
CC1(C)Oc2cc3oc(=O)ccc3cc2C[C@@H]1O [DOH, decursinol]
1
CC(C)=CC(=O)O[C@H]1Cc2cc3ccc(=O)oc3cc2OC1(C)C [D, decursin]
1

Now let's try a different one.
Requested field: Tmax. Item: C/C=C(/C)C(=O)O[C@H]1Cc2cc3ccc(=O)oc3cc2OC1(C)C [DA, decursinol angelate]
1
